system: Mycobacterium tuberculosis Erdman (autoluminescent); experiment: AUC25, normalised area under dose response up to IC25 (three-drug combination) (fraction (0-1)); higher = more potent at low dose; details: in vitro model: acidic pH 5.7; time point: constant (~7 days, model-specific)
READOUT: AUC25
Just the number, please, no unit after it.

q: Fill in the blank: the reported AUC25 of CC(=O)NC[C@H]1CN(c2ccc(N3CCOCC3)c(F)c2)C(=O)O1 [linezolid] + COc1c(N2C[C@@H]3CCCN[C@@H]3C2)c(F)cc2c(=O)c(C(=O)O)cn(C3CC3)c12 [moxifloxacin] + NC(=O)c1cnccn1 [pyrazinamide] is ____.
a: 0.0593

q: Fill in the blank: the reported AUC25 of COc1nc2ccc(Br)cc2cc1[C@@H](c1ccccc1)[C@@](O)(CCN(C)C)c1cccc2ccccc12 [bedaquiline] + CC(=O)NC[C@H]1CN(c2ccc(N3CCOCC3)c(F)c2)C(=O)O1 [linezolid] + CO[C@H]1/C=C/O[C@@]2(C)Oc3c(C)c(O)c4c(O)c(c(/C=N/N5CCN(C)CC5)c(O)c4c3C2=O)NC(=O)/C(C)=C\C=C\[C@H](C)[C@H](O)[C@@H](C)[C@@H](O)[C@@H](C)[C@H](OC(C)=O)[C@@H]1C [rifampicin] is ____.
a: 0.0983

q: Fill in the blank: the reported AUC25 of COc1c(N2C[C@@H]3CCCN[C@@H]3C2)c(F)cc2c(=O)c(C(=O)O)cn(C3CC3)c12 [moxifloxacin] + O=[N+]([O-])c1cn2c(n1)OC[C@@H](OCc1ccc(OC(F)(F)F)cc1)C2 [pretomanid] + NC(=O)c1cnccn1 [pyrazinamide] is ____.
a: 0.0694

q: Fill in the blank: the reported AUC25 of COc1nc2ccc(Br)cc2cc1[C@@H](c1ccccc1)[C@@](O)(CCN(C)C)c1cccc2ccccc12 [bedaquiline] + CC(C)/N=c1\cc2n(-c3ccc(Cl)cc3)c3ccccc3nc-2cc1Nc1ccc(Cl)cc1 [clofazimine] + CC(=O)NC[C@H]1CN(c2ccc(N3CCOCC3)c(F)c2)C(=O)O1 [linezolid] is ____.
a: 0.0792

q: Fill in the blank: the reported AUC25 of CC(C)/N=c1\cc2n(-c3ccc(Cl)cc3)c3ccccc3nc-2cc1Nc1ccc(Cl)cc1 [clofazimine] + O=[N+]([O-])c1cn2c(n1)OC[C@@H](OCc1ccc(OC(F)(F)F)cc1)C2 [pretomanid] + CO[C@H]1/C=C/O[C@@]2(C)Oc3c(C)c(O)c4c(O)c(c(/C=N/N5CCN(C6CCCC6)CC5)c(O)c4c3C2=O)NC(=O)/C(C)=C\C=C\[C@H](C)[C@H](O)[C@@H](C)[C@@H](O)[C@@H](C)[C@H](OC(C)=O)[C@@H]1C [rifapentine] is ____.
a: 0.103

q: Fill in the blank: the reported AUC25 of CC[C@@H](CO)NCCN[C@@H](CC)CO [ethambutol] + COc1c(N2C[C@@H]3CCCN[C@@H]3C2)c(F)cc2c(=O)c(C(=O)O)cn(C3CC3)c12 [moxifloxacin] + CO[C@H]1/C=C/O[C@@]2(C)Oc3c(C)c(O)c4c(O)c(c(/C=N/N5CCN(C6CCCC6)CC5)c(O)c4c3C2=O)NC(=O)/C(C)=C\C=C\[C@H](C)[C@H](O)[C@@H](C)[C@@H](O)[C@@H](C)[C@H](OC(C)=O)[C@@H]1C [rifapentine] is ____.
a: 0.071

q: Fill in the blank: the reported AUC25 of CC[C@@H](CO)NCCN[C@@H](CC)CO [ethambutol] + O=[N+]([O-])c1cn2c(n1)OC[C@@H](OCc1ccc(OC(F)(F)F)cc1)C2 [pretomanid] + CO[C@H]1/C=C/O[C@@]2(C)Oc3c(C)c(O)c4c(O)c(c(/C=N/N5CCN(C)CC5)c(O)c4c3C2=O)NC(=O)/C(C)=C\C=C\[C@H](C)[C@H](O)[C@@H](C)[C@@H](O)[C@@H](C)[C@H](OC(C)=O)[C@@H]1C [rifampicin] is ____.
a: 0.116

q: Fill in the blank: the reported AUC25 of NNC(=O)c1ccncc1 [isoniazid] + CC(=O)NC[C@H]1CN(c2ccc(N3CCOCC3)c(F)c2)C(=O)O1 [linezolid] + COc1c(N2C[C@@H]3CCCN[C@@H]3C2)c(F)cc2c(=O)c(C(=O)O)cn(C3CC3)c12 [moxifloxacin] is ____.
a: 0.109

q: Fill in the blank: the reported AUC25 of CC[C@@H](CO)NCCN[C@@H](CC)CO [ethambutol] + NNC(=O)c1ccncc1 [isoniazid] + CO[C@H]1/C=C/O[C@@]2(C)Oc3c(C)c(O)c4c(O)c(c(/C=N/N5CCN(C6CCCC6)CC5)c(O)c4c3C2=O)NC(=O)/C(C)=C\C=C\[C@H](C)[C@H](O)[C@@H](C)[C@@H](O)[C@@H](C)[C@H](OC(C)=O)[C@@H]1C [rifapentine] is ____.
a: 0.116

q: Fill in the blank: the reported AUC25 of CC(=O)NC[C@H]1CN(c2ccc(N3CCOCC3)c(F)c2)C(=O)O1 [linezolid] + COc1c(N2C[C@@H]3CCCN[C@@H]3C2)c(F)cc2c(=O)c(C(=O)O)cn(C3CC3)c12 [moxifloxacin] + O=[N+]([O-])c1cn2c(n1)OC[C@@H](OCc1ccc(OC(F)(F)F)cc1)C2 [pretomanid] is ____.
a: 0.113

q: Fill in the blank: the reported AUC25 of COc1c(N2C[C@@H]3CCCN[C@@H]3C2)c(F)cc2c(=O)c(C(=O)O)cn(C3CC3)c12 [moxifloxacin] + O=[N+]([O-])c1cn2c(n1)OC[C@@H](OCc1ccc(OC(F)(F)F)cc1)C2 [pretomanid] + CO[C@H]1/C=C/O[C@@]2(C)Oc3c(C)c(O)c4c(O)c(c(/C=N/N5CCN(C)CC5)c(O)c4c3C2=O)NC(=O)/C(C)=C\C=C\[C@H](C)[C@H](O)[C@@H](C)[C@@H](O)[C@@H](C)[C@H](OC(C)=O)[C@@H]1C [rifampicin] is ____.
a: 0.0717
